System: U-251
method description: NCI tumour cell line growth inhibition, 48 h
Activity calls are given as the source filed them. No stated cut-off is given here; in the data, active = GI50 up to about 1.1 µM and inactive = higher.
Each record here notes measured GI50.

{"compound": "CCCCCCCC(=O)OCC1OC(n2cc(F)c(=O)[nH]c2=O)C(N)C(OC(=O)CCCCCCC)C1O (centres undefined)", "GI50": "19.5 µM (inactive)"}
{"compound": "O=C1/C(=N/CCc2cc(Br)c(O)c(Br)c2)C=C(O)c2cccnc21", "GI50": "1.93 µM (inactive)"}
{"compound": "COC(=O)C1=C(O)C(C(=O)OC)[C@]2(O)[C@H](C(=O)OC)[C@H]1C[C@@H](c1ccc(Cl)cc1Cl)[C@H]2C(=O)OC (some centres undefined)", "GI50": "2.72 µM (inactive)"}

Turning now to a further record.
Query: Give its GI50 value. Item: CC1=C(c2cc(C(=O)Nc3ccc(Cl)c(Cl)c3)nc(N)n2)Sc2ccccc2N1
Reply: > 100 µM (inactive)

* * *

System: COLO 205
method description: NCI tumour cell line growth inhibition, 48 h
Active and inactive are the calls of the source. Rule as the data show it: active = GI50 up to about 1.1 µM and inactive = higher.
Each record here notes measured GI50.

Solved entries (count: 5):
{"smiles text": "Cc1ccc(-n2cc([Si](C)(C)C)nn2)s1", "GI50": "61.8 µM (inactive)"}
{"smiles text": "CC(C)=CCC[C@@H](C)C1=C(O)C(=O)C(C)=C(Nc2ccccc2F)C1=O", "GI50": "23.4 µM (inactive)"}
{"smiles text": "Cc1nc(Nc2ccc(Cl)cc2)sc1C(=O)NNc1ccc([N+](=O)[O-])cc1[N+](=O)[O-]", "GI50": "19.8 µM (inactive)"}
{"smiles text": "CN(C)CC(CN(C)C)c1ccccn1", "GI50": "> 100 µM (inactive)"}
{"smiles text": "CNC(=O)Nn1c(SC)nc2ccccc21", "GI50": "> 100 µM (inactive)"}

Query: Give its GI50 value. Item: Cc1c2ccc3ccccc3c2c[n+]2ccccc12
Reply: 2.82 µM (inactive)

* * *

Each record here notes measured GI50.
Test system: CCRF-CEM
method description: NCI tumour cell line growth inhibition, 48 h
Active and inactive are the calls of the source. Rule as the data show it: active = GI50 up to about 1.1 µM and inactive = higher.

Solved entries (count: 10):
{"compound": "CCCCCCCC(=O)OCC1OC(n2cc(F)c(=O)[nH]c2=O)C(N)C(OC(=O)CCCCCCC)C1O (stereo not drawn)", "measured on": "CCRF-CEM", "readout kind": "GI50", "measured value": "17.6 µM (inactive)"}
{"compound": "COc1nc(NC2OCC(OC(C)=O)C(OC(C)=O)C2OC(C)=O)c(-c2csc(N)n2)c(=O)n1C (stereo not drawn)", "measured on": "CCRF-CEM", "readout kind": "GI50", "measured value": "> 100 µM (inactive)"}
{"compound": "Cc1c2ccc3ccccc3c2c[n+]2ccccc12", "measured on": "CCRF-CEM", "readout kind": "GI50", "measured value": "6.59 µM (inactive)"}
{"compound": "COCC1OC(S(=O)(=O)c2ccccc2)C(O)C(OC)C1OC (stereo not drawn)", "measured on": "CCRF-CEM", "readout kind": "GI50", "measured value": "> 100 µM (inactive)"}
{"compound": "CN(C)CCC(C(=O)C(C)(C)C)c1ccccn1 (stereo not drawn)", "measured on": "CCRF-CEM", "readout kind": "GI50", "measured value": "> 100 µM (inactive)"}
{"compound": "CN(C)CCN(c1ccccn1)c1ccccn1", "measured on": "CCRF-CEM", "readout kind": "GI50", "measured value": "> 100 µM (inactive)"}
{"compound": "CC(C)=CCC/C(C)=C/Cc1c(O)ccc2c1[nH]c1cc(O)c(C)cc12", "measured on": "CCRF-CEM", "readout kind": "GI50", "measured value": "7.55 µM (inactive)"}
{"compound": "O=C(O)c1ccccc1/C=C1/Nc2ccccc2C1=O", "measured on": "CCRF-CEM", "readout kind": "GI50", "measured value": "44.9 µM (inactive)"}
{"compound": "COc1cc(C2c3cc4c(cc3OC(NNc3ccccc3)C2C)OCO4)cc(OC)c1O (stereo not drawn)", "measured on": "CCRF-CEM", "readout kind": "GI50", "measured value": "0.463 µM (active)"}
{"compound": "O=C1/C(=C\\c2cccc(Oc3ccccc3)c2)S(=O)(=O)C(c2ccccc2)N1c1ccc(Cl)cc1 (stereo not drawn)", "measured on": "CCRF-CEM", "readout kind": "GI50", "measured value": "12.3 µM (inactive)"}

Query: Give its GI50 value. Item: N#Cc1cc2c(cc1Cl)Sc1nnc(Nc3ccccc3)n1S2(=O)=O
Reply: 1.56 µM (inactive)

Query: Next up: CCOC(=O)Nc1cc2c(c(N)n1)N=C(c1ccc(Cl)cc1Cl)CN2
Reply: < 0.0155 µM (active)

Query: Next up: CCOC(OCC)(OCC)C(Br)CC (stereo not drawn)
Reply: 28.2 µM (inactive)

Query: Next up: CC(=O)Nc1c2sscc-2n(C)c1=O [THIOLUTIN]
Reply: 0.282 µM (active)

Query: Next up: CC(=O)CCC[C@H](C)[C@@H](O)[C@@H]1O[C@H]([C@@]2(C)CCC(=O)O2)C[C@H]1C(=O)O
Reply: > 100 µM (inactive)

* * *

System: NCI-H226
method description: NCI tumour cell line growth inhibition, 48 h
Active and inactive are the calls of the source. Rule as the data show it: active = GI50 up to about 1.1 µM and inactive = higher.
readout kind: GI50

Solved entries (count: 3):
{"compound": "O=C(N/C=C1\\C(=O)Oc2ccccc2C1=O)Oc1ccccc1", "measured on": "NCI-H226", "GI50": "14.4 µM (inactive)"}
{"compound": "CC(=O)c1c2c(cc3c1CC1(C3)Cc3cc4c(c(C(C)=O)c3C1)CCCC4)CCCC2", "measured on": "NCI-H226", "GI50": "> 100 µM (inactive)"}
{"compound": "C/C=C/CP(=O)(c1ccccc1)c1ccccc1", "measured on": "NCI-H226", "GI50": "> 100 µM (inactive)"}

Query: Give its GI50 value. Item: CC(C)c1cc2c(c(O)c1O)[C@@]1(C(=O)O)CCCC(C)(C)[C@@H]1CC2 [CARNOSIC ACID]
Reply: 10.4 µM (inactive)

Query: Next up: O=C(Nc1ccccc1)c1cc(S(=O)(=O)Nc2nc3cccnc3[nH]2)c(SSc2cc(Cl)c(C(=O)Nc3ccccc3)cc2S(=O)(=O)Nc2nc3cccnc3[nH]2)cc1Cl
Reply: > 100 µM (inactive)

Query: Next up: CN(C)C(=O)c1nnsc1NN=O
Reply: > 100 µM (inactive)

* * *

Tested on: U-251
method description: NCI tumour cell line growth inhibition, 48 h
Activity calls are given as the source filed them. Rule as the data show it: active = GI50 up to about 1.1 µM and inactive = higher.
readout kind: GI50

Solved entries (count: 5):
{"compound": "O=C(CCc1cc(O)cc(O)c1)NCCc1cc(O)cc(O)c1", "GI50": "> 100 µM (inactive)"}
{"compound": "C[N+](C)(C)CC(=O)N/N=C(/CC1OC(=O)c2ccccc21)c1ccccc1O (stereo unspecified)", "GI50": "22 µM (inactive)"}
{"compound": "Cc1[nH]n(-c2ncc(C(=O)O)c(=O)[nH]2)c(=O)c1CCO", "GI50": "> 100 µM (inactive)"}
{"compound": "O=C(O)c1ccccc1C(=O)Nn1cnnc1", "GI50": "> 100 µM (inactive)"}
{"compound": "Cc1nc2sccn2c1/C=C1/C(=O)Nc2cccc(Cl)c21", "GI50": "> 100 µM (inactive)"}

Turning now to a further record.
Query: Give its GI50 value. Item: COc1cccc2c1C(=O)c1c(O)c3c(c(O)c1C2=O)C[C@@](O)(C(=O)CO)CC3OC1CC(NCCCCC(OC(C)=O)OC(C)=O)C(O)C(C)O1 (stereo partly specified)
Reply: 0.00173 µM (active)

* * *

Test system: K562
method description: NCI tumour cell line growth inhibition, 48 h
Activity calls are given as the source filed them. Rule as the data show it: active = GI50 up to about 1.1 µM and inactive = higher.
Bench note: report the call from active, inactive

Before answering, review these 5 worked examples.
{"compound": "OCCOc1ccccc2cccc1-2", "measured on": "K562", "assigned label": "inactive"}
{"compound": "ClCCCCCc1c2nc(c(CCCCCCl)c3ccc([nH]3)c(CCCCCCl)c3nc(c(CCCCCCl)c4ccc1[nH]4)C=C3)C=C2", "measured on": "K562", "assigned label": "inactive"}
{"compound": "c1ccc2c(c1)SCCC2NC1=NCCO1 (configuration not stated)", "measured on": "K562", "assigned label": "inactive"}
{"compound": "Cc1cc(NC(=O)C(=O)Cc2nc3ccccc3s2)ccc1Cl", "measured on": "K562", "assigned label": "inactive"}
{"compound": "COc1ccccc1NC1Oc2cc3c(cc2C(c2cc(OC)c(OC)c(OC)c2)C1C)OCO3 (configuration not stated)", "measured on": "K562", "assigned label": "active"}

Query: // param item: CCNCCC1(CC)C(=O)NC(=O)NC1=O ; yields the recorded call
Reply: inactive

Query: Next up: CCOC(=O)Cn1c2ccc(Br)cc2c2nc3ccccc3nc21
Reply: inactive
